These entries and their values trace back to patent US20070196848A1.

System: A549
Experiment: sulfarodamine B cell growth assay (SRB)
Type: cell-based
Conditions: Homo sapiens; A549, Lung
MEASURED_ATTRIBUTE: IC50 (µM)
One number for each entry, in µM.

Which IC50 is reported for this molecule? `CC/C=C\C/C=C\C/C=C\C/C=C\C/C=C\CCCC(=O)O`
54
